# ASSAY_SUMMARY: chemical genetic growth profiling, strain panel (AID 1159580);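 note: tested at 20 µM; growth read once vehicle control cultures reached saturation at 30 °C; 1 = growth at the plate median or of vehicle wells; lower values mean less growth of the strain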
# STATED_CONDITIONS: S. cerevisiae deletion strains, growth OD, locus YLR330W, strain CHS5
About 2,000 (36%) of roughly 5,500 compounds were called active. Inconclusive results (about 18%) are left out. Cut-off read from the data, not from the text of the source: active = normalized growth mostly below about 0.91 (no sharp cut-off); inconclusive = no clear call, values can overlap the other calls; inactive = mostly above about 0.92. Some of the results follow.
Can you answer with just one of these options? yes (1) (active), no (0) (inactive)

Reference set, count: 8
molecule=NCCCS(=O)(=O)O class_assignment="no (0)"
molecule=O=C(O)CCCc1ccc(N(CCCl)CCCl)cc1 class_assignment="no (0)"
molecule="Cn1c(=O)c2c(ncn2CC(O)CO)n(C)c1=O (stereo not drawn)" class_assignment="no (0)"
molecule=CCCCCCCCCCC[C@@H](C[C@H]1OC(=O)[C@H]1CCCCCC)OC(=O)[C@@H](CC(C)C)NC=O class_assignment="no (0)"
molecule=COc1cc2c(cc1OC)C(=O)c1ccc(OC)c(OC)c1OCC(=O)C2 class_assignment="no (0)"
molecule="CCC(C)C(=O)OC1CC2(C)C(c3ccoc3)OC(=O)CC23OC2(C)OC34C(OC(=O)C(C)C)C3(O)C(OC(=O)C5(C)OC5C)C5(C)CC3(O)C(C)(C5C(=O)OC)C14O2 (stereo not drawn)" class_assignment="no (0)"
molecule="OCC(O)CN1CCN(c2ccccc2)CC1 (stereo not drawn)" class_assignment="no (0)"
molecule=CN1C2C[C@H](OC(=O)[C@H](CO)c3ccccc3)C[C@H]1[C@@H](O)C2 class_assignment="no (0)"

What did this assay record as the result for COC(=O)[C@@H]1OC(=O)C2OC23[C@@]1(C)CCC1[C@]2(C)C(C[C@H](O)[C@]13C)C(C)(C)[C@H](OC(C)=O)C[C@@H]2OC(C)=O (stereo partly drawn) ? no (0)

What did this assay record as the result for `C[n+]1c2cc(N)ccc2cc2ccc(N)cc21` ? yes (1)

What did this assay record as the result for `CN1CCC(OC(c2ccccc2)c2ccccc2)CC1` ? no (0)

----------
normalized growth values for the compounds below.
# ASSAY_SUMMARY: chemical genetic growth profiling, strain panel (AID 1159580);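 note: tested at 20 µM; growth read once vehicle control cultures reached saturation at 30 °C; 1 = growth at the plate median or of vehicle wells; lower values mean less growth of the strain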
# STATED_CONDITIONS: S. cerevisiae deletion strains, growth OD, locus YLR258W, strain gsy2, hits give low values
In all, about 5,500 compounds went through this assay and about 2,000 (36%) were called active. About 18% were inconclusive and are not listed. The list shows a part of the results.
Reply with just the number.

compound=COC(=O)c1cc(=O)c(O)c2c(O)c(O)ccc2c1 quantity_name="normalized growth" number=0.996
compound="COc1ccc(C2CNC(=O)C2)cc1OC1CCCC1 (stereo unspecified)" quantity_name="normalized growth" number=1.01
compound="C=C[C@@](C)(O)CCC1C(=C)CCC2[C@@](C)(CO)CCC[C@]12C (stereo partly specified)" quantity_name="normalized growth" number=1
compound="COc1cc([C@@H]2c3cc4c(cc3[C@@H](O)C3COC(=O)C32)OCO4)cc(OC)c1O (stereo partly specified)" quantity_name="normalized growth" number=0.985
compound=O=C(NC(=O)c1ccccc1Cl)Nc1ccc(OC(F)(F)F)cc1 quantity_name="normalized growth" number=1.02

Query compound follows.
Look up normalized growth for this compound: `Cc1ccc(C(=O)Nc2ccc(S(=O)(=O)O)c3cc(S(=O)(=O)O)cc(S(=O)(=O)O)c23)cc1NC(=O)c1cccc(NC(=O)Nc2cccc(C(=O)Nc3cc(C(=O)Nc4ccc(S(=O)(=O)O)c5cc(S(=O)(=O)O)cc(S(=O)(=O)O)c45)ccc3C)c2)c1` 1

Hello, the source for this data is PubChem BioAssay AID1159580, in case you need it.
